condition notes: 343.15 K; 101.33 kPa; Liquid
Give mass density for every item shown.
Answers are plain numbers, in kg/m3.

compound="CN1CCCC1=O [N-methylpyrrolidone]" experimental_readout="mass density" observed_measurement=987.75
compound="C=Cc1ccccc1 [styrene]" experimental_readout="mass density" observed_measurement=861.72
compound="CCc1ccccc1 [ethylbenzene]" experimental_readout="mass density" observed_measurement=824.26
compound="CCCCCCCC [octane]" experimental_readout="mass density" observed_measurement=662.59

Now, please, on to the next compound.
Exercise: Item O=S1(=O)CCCC1 [sulfolane] : provide mass density
Solution: 1225.92

###

condition notes: 303.15 K; 101.33 kPa; Liquid
Mark each entry Fulfilled if its viscosity sits below 0.7 mPa·s, and Not fulfilled for all others.

Answered cases to consult:
record_smiles=CN1CCCC1=O assigned_category="Not fulfilled"
record_smiles=O=S1(=O)CCCC1 assigned_category="Not fulfilled"
record_smiles=CCCCCCCC assigned_category=Fulfilled
record_smiles=CCc1ccccc1 assigned_category=Fulfilled

Exercise: Dear colleague, could you confirm whether viscosity of `C=Cc1ccccc1` falls below 0.7 mPa·s? Thanks.
Solution: Fulfilled

###

condition notes: 313.15 K; 101.33 kPa; Liquid
Please provide measured mass density for the entries that follow.
Give bare numbers, in kg/m3.

Please report mass density for every entry that follows.
1. CN1CCCC1=O [N-methylpyrrolidone]
2. CCc1ccccc1 [ethylbenzene]
3. CCCCCCCC [octane]
4. O=S1(=O)CCCC1 [sulfolane]
5. C=Cc1ccccc1 [styrene]

Solution:
1014.55
851.14
687.59
1251.9
888.53

###

condition notes: 333.15 K; 101.33 kPa; Liquid
experimental readout: viscosity (mPa·s)
One number for each entry, in mPa·s.

The following compounds have reported results that may help.
compound="O=S1(=O)CCCC1 [sulfolane]" observed_measurement=5.009
compound="C=Cc1ccccc1 [styrene]" observed_measurement=0.462
compound="CCCCCCCC [octane]" observed_measurement=0.343
compound="CN1CCCC1=O [N-methylpyrrolidone]" observed_measurement=1.022

Exercise: Entry CCc1ccccc1 [ethylbenzene] needs its viscosity filled in; supply it.
Solution: 0.437

###

condition notes: 323.15 K; 101.33 kPa; Liquid
experimental readout: viscosity (mPa·s)
Give bare numbers, in mPa·s.

Recorded viscosity, per entry:
molecule="CCCCCCCC [octane]" observed_measurement=0.38
molecule="O=S1(=O)CCCC1 [sulfolane]" observed_measurement=6.194

For each of the items listed, what is its viscosity?
1. CN1CCCC1=O [N-methylpyrrolidone]
2. C=Cc1ccccc1 [styrene]

Solution:
1.16
0.513

Exercise: Quick one: give measured viscosity for CCc1ccccc1 [ethylbenzene]
Solution: 0.483

###

Kindly supply the reported log10 of viscosity values for the records listed here.
condition notes: 353.15 K; 101.33 kPa; Liquid
A difference of one corresponds to tenfold viscosity; all values are log10 with viscosity in mPa·s.

Guide cases for log10 of viscosity, answers given:
record_smiles=C=Cc1ccccc1 experimental_readout="log10 of viscosity" observed_measurement=-0.42
record_smiles=O=S1(=O)CCCC1 experimental_readout="log10 of viscosity" observed_measurement=0.54
record_smiles=CN1CCCC1=O experimental_readout="log10 of viscosity" observed_measurement=-0.09

Would you mind listing log10 of viscosity for each of the following compounds?
1. CCCCCCCC
2. CCc1ccccc1

Solution:
1. -0.54
2. -0.44

###

Consider the following compounds; for each one, report its mass density.
condition notes: 303.15 K; 101.33 kPa; Liquid
± gives the expanded uncertainty stated by the source.

The examples below pair each entry with its known result.
record_smiles=C=Cc1ccccc1 observed_measurement="897.45 ± 1.5 kg/m3"
record_smiles=O=S1(=O)CCCC1 observed_measurement="1260.8 ± 6.4 kg/m3"
record_smiles=CCCCCCCC observed_measurement="695.79 ± 3.1 kg/m3"

Give mass density for each of the items listed below.
1. CN1CCCC1=O
2. CCc1ccccc1

Solution:
1. 1023.47 ± 3.2 kg/m3
2. 859.95 ± 3.6 kg/m3

###

condition notes: 333.15 K; 101.33 kPa; Liquid
Give measured mass density for each item. Keep answers brief.
One number for each entry, in kg/m3.

compound="C=Cc1ccccc1 [styrene]" value_unit=kg/m3 observed_measurement=870.64
compound="O=S1(=O)CCCC1 [sulfolane]" value_unit=kg/m3 observed_measurement=1234.62
compound="CCc1ccccc1 [ethylbenzene]" value_unit=kg/m3 observed_measurement=833.34
compound="CN1CCCC1=O [N-methylpyrrolidone]" value_unit=kg/m3 observed_measurement=996.71

Now for a further compound.
Exercise: Report mass density, nothing else, for this compound: CCCCCCCC [octane]
Solution: 670.98

###

Could you please report measured mass density for the items listed next?
condition notes: 353.15 K; 101.33 kPa; Liquid
One number for each entry, in kg/m3.

compound="O=S1(=O)CCCC1 [sulfolane]" value_unit=kg/m3 observed_measurement=1216.8
compound="CCCCCCCC [octane]" value_unit=kg/m3 observed_measurement=654.05
compound="CCc1ccccc1 [ethylbenzene]" value_unit=kg/m3 observed_measurement=815.18
compound="C=Cc1ccccc1 [styrene]" value_unit=kg/m3 observed_measurement=852.68

Exercise: Provide one value: measured mass density of CN1CCCC1=O [N-methylpyrrolidone]
Solution: 978.76

###

Provide the recorded viscosity for the entries that follow.
condition notes: 313.15 K; 101.33 kPa; Liquid
Numbers only, in mPa·s.

The examples below pair each entry with its known result.
record_smiles=CN1CCCC1=O experimental_readout=viscosity observed_measurement=1.332
record_smiles=O=S1(=O)CCCC1 experimental_readout=viscosity observed_measurement=7.808

I have 3 compounds here; please give me viscosity for each one.
1. C=Cc1ccccc1
2. CCc1ccccc1
3. CCCCCCCC

Solution:
1: 0.577; 2: 0.537; 3: 0.422

###

condition notes: 323.15 K; 101.33 kPa; Liquid
± gives the expanded uncertainty stated by the source.
Field: mass density. Provide a value for each of the molecules that follow.

See these solved cases before continuing.
molecule="CN1CCCC1=O [N-methylpyrrolidone]" observed_measurement="1005.66 ± 3 kg/m3"
molecule="CCCCCCCC [octane]" observed_measurement="679.34 ± 3.2 kg/m3"
molecule="C=Cc1ccccc1 [styrene]" observed_measurement="879.62 ± 1.6 kg/m3"

Please find the next molecule below.
Exercise: Provide one value: measured mass density of O=S1(=O)CCCC1 [sulfolane]
Solution: 1243.36 ± 6.2 kg/m3

###

condition notes: 343.15 K; 101.33 kPa; Liquid
experimental readout: viscosity (mPa·s)
Numbers only, in mPa·s.

compound="CCc1ccccc1 [ethylbenzene]" experimental_readout=viscosity observed_measurement=0.397

Could you tell me viscosity for each of these compounds? They are listed below.
1. O=S1(=O)CCCC1 [sulfolane]
2. CCCCCCCC [octane]
3. C=Cc1ccccc1 [styrene]
4. CN1CCCC1=O [N-methylpyrrolidone]

Solution:
[4.126, 0.314, 0.419, 0.908]
